// provenance: PubChem BioAssay (NCI)

- Tested on: HT29 colon
- Method: NCI-60 one-dose screen, 48 h
- Applied Conditions: 10 µM unless noted
This is part of a sample that, as a whole, favours compounds with a hit. Of some 83,000 tested, about 20% had one in any assay. Calls of active or inactive are those of the source. Rule for the calls: active = growth percent below 10; inactive = the rest.
Classes to choose from: active, inactive

Prompt: Please indicate how the test categorized `Fc1ccc(CNCCNc2ncnc3c2cnn3-c2ccccc2)cc1` .
Response: inactive

Prompt: What call does the record list for `COc1ccc(C(=O)N2NC(=O)/C(=C/c3ccc(Br)cc3)N=C2c2ccccc2)cc1` ?
Response: inactive

Prompt: // return assay outcome for `COc1ccc(/C=C\c2cc(OC)c(OC)c(OC)c2)cc1OC(=O)c1cccc(Cn2cc(CCOC(=O)c3cccc(Cn4nnc5c4C(=O)c4ccccc4C5=O)c3)nn2)c1`
Response: inactive

Prompt: How was `c1coc(CNc2ccnc(Nc3ccc(OCCN4CCCCC4)cc3)n2)c1` classified in this test?
Response: inactive

Prompt: Which outcome did this test record for the molecule `O=C(NS(=O)(=O)c1ccc2ccccc2c1)n1cc(-c2ccncc2)c(-c2ccc(Cl)c(O)c2)n1` ?
Response: inactive

Prompt: Short answer needed: outcome of this test for `CCc1ccc(-c2ccc(=O)n(-c3ccc(S(N)(=O)=O)cc3)n2)cc1` ?
Response: inactive

Prompt: What call does the record list for `N=C(N)c1ccc(-c2ccc(-c3cncc4ccccc34)s2)cc1F` ?
Response: active

Prompt: Per the assay record, what outcome was assigned to C/C=C(\C)C(C(=O)NC1CCCCC1)N(C(=O)C1CCc2cc(F)ccc2O1)c1ccc(Cl)cc1 (stereo unspecified) ?
Response: inactive

Prompt: For `OCc1ncc(-c2ccccc2)s1` , what call appears in the results of this test?
Response: inactive

Prompt: What did the test return for `Cn1cnc2c(N3CCN(C(=O)OCc4ccc5c(Cl)cc(Cl)c(O)c5n4)CC3)nc(Cl)nc21` ?
Response: inactive

Prompt: // outcome(item) with item = `COc1ccc(/C=C2\Oc3cc(OCCCN4CCCC4)ccc3C2=O)cc1`
Response: inactive

Prompt: Assay result, entry `O=C1/C(=C/c2ccc(Cl)cc2)CN(C(=O)CCN2CCC(=NO)CC2)C/C1=C\c1ccc(Cl)cc1` — outcome?
Response: active

Prompt: GET /call?item= CCN(CC)CCCC(C)Nc1c2ccc(Cl)cc2nc2cc(OC)c(OC)cc12 (stereo unspecified) returns the recorded outcome of this test.
Response: active

Prompt: Answer briefly: the call reported for `Nc1cc2c(cc1C(=O)c1cccc(F)c1)OCCO2` in this assay.
Response: inactive

Prompt: Recorded call for CC(O)CN1CCCCC1 (stereo unspecified) ?
Response: inactive

Prompt: Outcome? `Cc1nc2ncccc2nc1Nc1ccc(S(=O)(=O)Nc2cncs2)cc1`
Response: inactive

Prompt: Fill in: this test's call for `CN(CCCCN(C[C@H]1Cc2ncccc2CN1)[C@H]1CCCc2cccnc21)C1CCC(F)(F)CC1` is ___
Response: inactive

Prompt: Which outcome was assigned to `CC(C)(C)n1cc(-c2ccnc(NCCNS(=O)(=O)c3ccc(F)cc3)c2)c(-c2cccc(O)c2)n1` in this test?
Response: inactive

Prompt: Tell me the assay call for `c1ccc(-c2nnc(-c3ccccn3)s2)nc1` please.
Response: inactive

Prompt: // param item: `CCNc1nc(S(=O)(=O)CC)nc2ccccc12` ; yields the recorded call
Response: inactive

Prompt: Assay outcome for `COc1ccc(-c2ccc(-c3ccc(C(=N)N)cn3)s2)cc1OC` : what was it?
Response: inactive

Prompt: Which result was noted for this molecule in the test: `COc1ccc(C(=O)N2NC(=O)/C(=C/c3ccc(F)cc3)N=C2c2ccccc2)cc1`
Response: inactive

Prompt: Query: recorded result category for `COc1ccc(-c2ccc(-c3ccc(C(=N)N)s3)s2)cc1Cl` in this test
Response: active

Prompt: Please let me know the test result on file for `O=C1NN(C(=O)c2ccc(Cl)cc2)C(c2ccccc2)=N/C1=C\c1ccc(F)cc1` .
Response: inactive

Prompt: Query: recorded result category for `OB(O)c1cccc(-c2nc3ccc4[nH]ncc4c3c3c2CCCC3)c1F` in this test
Response: inactive

Prompt: Which outcome was entered for the molecule `COc1ccc(-c2cnoc2-c2ccc(OC)cc2O)cc1` in this test?
Response: inactive

* * *

- System: BT-549 breast
- Method: NCI-60 one-dose screen, 48 h (100 = growth as untreated, 0 = no growth, -100 = all killed)
- Applied Conditions: 10 µM unless noted
- Procedure: Growth inhibition of the BT-549 human tumor cell line is measured as a screen for anti-cancer activity. Cells are grown in 96 well plates and exposed to the test compound for 48 hours. Compounds are tested at a single concentration, which is 10^-5 M for most compounds. The reported endpoint is percent growth (GI% or GIPRCNT), where numbers from 0 - 100% represent growth inhibition, and numbers from -100% - 0 represent cell death. For example, a value of 40 represents 60% growth inhibition. […]
The panel holds about 83,000 compounds, 20% with a hit somewhere; the sample as a whole holds those more often.
Kindly state growth for each of the entries shown.
Please give a number only; it is taken to be in %.

Prompt: Query: growth; subject: `O=C(/C=C\c1cccc([N+](=O)[O-])c1)/C=C/c1cccc([N+](=O)[O-])c1`
Response: 88.9

Prompt: Fill in the blank: the reported growth of `COc1cccc(/C=C2\Oc3cc(OCCCN4CCCC4)ccc3C2=O)c1OC` is ____.
Response: 87.7

Prompt: # get_value(readout='growth', item= CC1CCC(C)N(C)C1 (stereo not drawn) )
Response: 87.6

* * *

- Tested on: HOP-92 NSCLC
- Method: NCI-60 one-dose screen, 48 h
- Applied Conditions: 10 µM unless noted
The panel holds about 83,000 compounds, 20% with a hit somewhere; the sample as a whole holds those more often. Calls of active or inactive are those of the source. The calls were made as follows: active = growth percent below 10; inactive = the rest.
Select the matching outcome among active, inactive

Prompt: Which outcome was entered for the molecule `O=[N+]([O-])c1cnc(Sc2ccncn2)s1` in this test?
Response: active

Prompt: Which result was noted for this molecule in the test: `O=C(Nc1ccncc1)C(=O)c1cn(S(=O)(=O)c2ccc(Br)cc2)c2ccccc12`
Response: inactive

Prompt: State the result this test recorded for `COc1ccc(NC(=O)c2cc(OC)c(OC)c(OC)c2)cc1O` .
Response: inactive

Prompt: What did the test return for `c1ccc(-c2nnc(-c3ccccn3)s2)nc1` ?
Response: inactive

Prompt: Just curious, what result did `CC(C)NCCCNC1=C(Cl)C(=O)c2ccccc2C1=O` get here?
Response: inactive

Prompt: Hey, what did the test say about Cc1csc(NC(c2ccc(Br)cc2)c2c(C)nc3ccccn23)n1 (stereo unspecified) ?
Response: inactive

* * *

- Test system: HCT-15 colon
- Method: NCI-60 one-dose screen, 48 h
- Applied Conditions: 10 µM unless noted
This is part of a sample that, as a whole, favours compounds with a hit. Of some 83,000 tested, about 20% had one in any assay. Activity calls are given as the source filed them. The calls were made as follows: active = growth percent below 10; inactive = the rest.
Returns: one label drawn from t = active, f = inactive

Prompt: Given C=C1CCC2C(C)(CO)C(O)CCC2(C)C1C/C=C1/C(=O)OCC1Oc1ccccc1C (stereo unspecified) , state the outcome it received in this test.
Response: f

Prompt: // return assay outcome for O=C(O)C1CCCCN1c1nc(Cl)nc(Cl)n1 (stereo unspecified)
Response: f

Prompt: Could you please tell me the result logged for `C=C1C(=O)O[C@H]2[C@H]1CC/C(Cn1cc(-c3cccc(Cl)c3)nn1)=C\CC[C@@]1(C)O[C@@H]21` in this assay?
Response: t

Prompt: Could you please tell me the result logged for `O=C(N/N=C/C=C\c1ccccc1)C(=O)N/N=C/C=C/c1ccccc1` in this assay?
Response: f

Prompt: Would you mind telling me which call this test gave COc1ccc(C2=CC(c3cc(OC)c(OC)c(OC)c3)NC(=O)N2)cc1OC (stereo unspecified) ?
Response: f

Prompt: Write down the call the test reported for this compound. Item: `COc1ccncc1S(=O)(=O)NC(=O)Nc1ccc(Cl)c(Cl)c1`
Response: f

* * *

- Tested on: SN12C renal
- Method: NCI-60 one-dose screen, 48 h (100 = growth as untreated, 0 = no growth, -100 = all killed)
- Applied Conditions: 10 µM unless noted
The panel holds about 83,000 compounds, 20% with a hit somewhere; the sample as a whole holds those more often. Calls of active or inactive are those of the source. The calls were made as follows: active = growth percent below 10; inactive = the rest.
Value Kind: growth

Prompt: Look up growth for this compound: `O=C(/C=C/c1cc(-c2ccc3c(c2)OCO3)n[nH]1)c1ccc2c(c1)OCO2`
Response: 88.9% (inactive)

Prompt: What value of measured growth is listed for `S=c1[nH]nc(-c2cc3ccc2CCc2ccc(cc2)CC3)n1C1CC1` ?
Response: 94.8% (inactive)

Prompt: # input compound: `COC(=O)c1nc(-c2ccccc2)oc1S(=O)(=O)N1CCN(c2cccc(Cl)c2)CC1` ; wanted: its growth
Response: 74.5% (inactive)

* * *

- Test system: MALME-3M melanoma
- Method: NCI-60 one-dose screen, 48 h (100 = growth as untreated, 0 = no growth, -100 = all killed)
- Applied Conditions: 10 µM unless noted
The panel holds about 83,000 compounds, 20% with a hit somewhere; the sample as a whole holds those more often.
Value Kind: growth (%)
Dear colleague, please return just the value in %, with no unit written.

Prompt: Bench note: what growth did `Cn1ccc(Nc2nccc(Oc3ccc(C(=O)Nc4cccc(F)c4)c(Cl)c3)n2)c1` show?
Response: 94.6

Prompt: Give its growth value. Item: `Cc1c(C(=N)C(C#N)C#N)c(=N)oc2c1ccc1ccccc12`
Response: 111

Prompt: Quick one: growth of `O=[N+]([O-])c1ccc(OCCCOc2ccccc2)cc1` ?
Response: 110

Prompt: Entry `Cc1ccc(S(=O)(=O)Nc2c(Br)cc(Br)cc2C(N)=O)cc1` : reported growth = ?
Response: 87.4

Prompt: Quick one: growth for `C=C(C)[C@@H]1CC[C@]2(C(=O)N3CCNCC3)CC[C@]3(C)[C@H](CC[C@@H]4[C@@]5(C)C/C(=C/c6ccncc6)C(=O)C(C)(C)[C@@H]5CC[C@]43C)[C@@H]12` ?
Response: 114

Prompt: If you can, please state the reported growth value of `CCCCOc1ccc(/C=C2/SC(N3CCCC3)=NC2=O)cc1` .
Response: 97.9

Prompt: Please report the recorded growth for `CCOC(=O)NNC(=S)Nc1ccccc1` .
Response: 110

Prompt: Field request: growth | item: `OCCCCCCNc1ncnc2cc(Cl)ccc12`
Response: 100

Prompt: May I ask what growth has been recorded for `CC(C)(C)n1cc(-c2ccnc(NCCCNS(=O)(=O)c3ccccc3)c2)c(-c2cccc(O)c2)n1` ?
Response: 44

Prompt: Data request, read-out growth, for CC1=C(C#N)C(=O)NC(C)C1 (stereo unspecified)
Response: 102

Prompt: Fill in the blank: the reported growth of `COC(=O)c1cc2cc(-c3ccc(OC)cc3)cnc2[nH]1` is ____.
Response: 56.3
